Measured values drawn from patent US9694016B2 for this set.

Target: b-Raf (V600E) (Homo sapiens (Human), UniProt P15056, V600E)
Sequence (P15056 whole entry V600E): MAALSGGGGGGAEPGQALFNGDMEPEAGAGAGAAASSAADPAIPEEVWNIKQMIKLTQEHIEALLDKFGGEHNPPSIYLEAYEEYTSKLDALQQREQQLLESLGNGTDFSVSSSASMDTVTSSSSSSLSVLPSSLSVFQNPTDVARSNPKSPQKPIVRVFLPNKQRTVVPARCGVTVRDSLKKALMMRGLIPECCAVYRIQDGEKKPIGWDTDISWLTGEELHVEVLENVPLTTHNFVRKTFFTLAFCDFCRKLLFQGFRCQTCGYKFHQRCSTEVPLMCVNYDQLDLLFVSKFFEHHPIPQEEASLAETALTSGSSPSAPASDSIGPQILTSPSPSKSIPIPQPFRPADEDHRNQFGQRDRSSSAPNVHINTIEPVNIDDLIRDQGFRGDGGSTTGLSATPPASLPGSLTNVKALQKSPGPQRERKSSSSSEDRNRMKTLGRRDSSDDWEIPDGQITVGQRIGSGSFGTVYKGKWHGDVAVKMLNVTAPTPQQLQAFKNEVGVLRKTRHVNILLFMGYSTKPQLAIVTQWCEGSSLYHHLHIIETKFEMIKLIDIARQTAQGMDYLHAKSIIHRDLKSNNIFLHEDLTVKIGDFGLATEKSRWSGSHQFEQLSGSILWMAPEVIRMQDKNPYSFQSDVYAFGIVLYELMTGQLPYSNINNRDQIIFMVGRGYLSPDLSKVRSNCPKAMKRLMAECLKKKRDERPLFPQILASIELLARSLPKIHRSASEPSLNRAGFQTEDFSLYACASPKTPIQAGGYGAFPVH
Conditions: read-out: b-Raf IC-50; Table 2; AlphaScreen, 3 hours reaction
Measured quantity: IC50 (nM)
Report the figure in nM without appending any unit label.

Cc1ccc(NC(=O)c2cccc(CC#N)c2)cc1-c1cc(N2CCOCC2)c(=O)n(C)c1 ... 5.5
Cc1ccc(NC(=O)c2cc(C(F)(F)F)nn2C)cc1-c1cc(N2CCOCC2)c(=O)n(C)c1 ... 53.1
Cc1ncc(NC(=O)c2ccnc(C(C)(C)C#N)c2)cc1-c1cnc(OCC(F)F)c(N2CCOCC2)c1 ... 4.7
CCOc1ncc(-c2cc(NC(=O)c3ccnc(C(F)(F)F)c3)cnc2C)cc1N1CCOCC1 ... 1.2
Cc1ccc(NC(=O)c2ccnc(C(C)(C)O)c2)cc1-c1cnc(OC2CCOCC2)c(N2CCOCC2)c1 ... 1
Cn1cc(-c2cc(NC(=O)c3cccc(C(F)F)c3)ccc2F)cc(N2CCOCC2)c1=O ... 3.1
CCN(C(=O)c1cccc(C(F)(F)F)c1)c1cnc(C)c(-c2cnc(OC3CCOCC3)c(N3CCOCC3)c2)c1 ... 1100
CCCN(C(=O)c1cccc(C(F)(F)F)c1)c1cnc(C)c(-c2cnc(OC3CCOCC3)c(N3CCOCC3)c2)c1 ... 2400
Cc1ccc(NC(=O)c2ccnc(C(C)(C)O)c2)cc1-c1cc(N2CCOCC2)c(=O)n(C)c1 ... 3.5
Cc1ncc(NC(=O)c2ccnc(C(C)(C)C#N)c2)cc1-c1cc(N2CCOCC2)c(=O)n(C)n1 ... 53.4

Complete the entry with IC50 for "COc1ncc(-c2cc(NC(=O)c3ccnc(C4(C#N)CC4)c3)cnc2C)cc1N1CCOCC1"
6

Give the reported value of IC50 for this record: "Cc1ccc(NC(=O)c2cccc(C(F)(F)F)c2)cc1-c1cc(N2CCOCC2)nc(NCCO)n1"
0.7

Provide measured IC50 value, entry: "Cc1ccc(NC(=O)c2cc(C(F)(F)F)ccn2)cc1-c1cc(N2CCOCC2)c(=O)n(C)c1"
2.1

Answer with the recorded IC50 of "CCOc1ncc(-c2cc(C(=O)Nc3cccc(S(C)(=O)=O)c3)ccc2C)cc1N1CCOCC1" only.
0.9

Specify measured IC50 for "Cc1ccc(NC(=O)c2cccc(C(F)(F)F)c2)cc1-c1cc(N2CCOCC2)c(=O)n(CC#N)c1" .
1
